test: Cell viability XTT assay; format: cell-based; settings: human, HeLa cells, 3 μM, read-out: Viability of treated cells relative to untreated control
VALUE_TYPE: viability at 3 days, 3 µM (%)
Quick reminder: number only, in %, skip the unit.

Previously resolved entries follow.
# lookup: viability at 3 days, 3 µM of COc1ccc2c(c1)[nH]c1c(Cl)nccc12 [AnnH24]
96

# lookup: viability at 3 days, 3 µM of COc1ccc2c3ccnc(C)c3n(CC#N)c2c1 [AnnH31]
80

# lookup: viability at 3 days, 3 µM of COc1ccc2c3ccnc(Cl)c3n(CC#N)c2c1 [AnnH75]
93

***
# lookup: viability at 3 days, 3 µM of COc1ccc2c3ccnc(C)c3n(C(C)C#N)c2c1 (stereo not shown) [AnnH43]
80

----------
biological target: DYRK1B (Homo sapiens, UniProt Q9Y463); assay: Kinase-GLO luminescent kinase assay; type: biochemical; set-up: made in house; host or cells: E. coli; conditions: 1 μM compound; means of at least 3 measurements
VALUE_TYPE: Residual activity (% of control) DYRK1B

Give the reported Residual activity (% of control) DYRK1B for Nc1ncnc2c1c(I)cn2[C@@H]1O[C@H](CO)[C@@H](O)[C@H]1O [IoT, 5-iodotubercidin, reference compound] (system: DYRK1B (Homo sapiens, UniProt Q9Y463)).
4 % of control

Give the reported Residual activity (% of control) DYRK1B for C#CCn1c2c(C)nccc2c2ccc(Cl)c(Cl)c21 (system: DYRK1B (Homo sapiens, UniProt Q9Y463)).
59 % of control

Give the reported Residual activity (% of control) DYRK1B for COc1ccc2c(c1)[nH]c1c(/C=C/c3ccccc3)nccc12 (system: DYRK1B (Homo sapiens, UniProt Q9Y463)).
50 % of control

Give the reported Residual activity (% of control) DYRK1B for COc1ccc2c(c1)[nH]c1c(Cl)nccc12 (system: DYRK1B (Homo sapiens, UniProt Q9Y463)).
44 % of control

Give the reported Residual activity (% of control) DYRK1B for COc1ccc2c3ccnc(C)c3n(CCC#N)c2c1 (system: DYRK1B (Homo sapiens, UniProt Q9Y463)).
43 % of control

----------
assay: Cell viability XTT assay; type: cell-based; details: rat, PC12 cells, PC12, 10 μM, read-out: Viability of treated cells relative to untreated control
VALUE_TYPE: viability at 3 days, 10 µM (%)
Quick reminder: number only, in %, skip the unit.

Previously resolved entries follow.
# lookup: viability at 3 days, 10 µM of COc1ccc2c3ccnc(Cl)c3n(CC#N)c2c1 [AnnH75]
95

# lookup: viability at 3 days, 10 µM of COc1ccc2c(c1)[nH]c1c(Cl)nccc12 [AnnH24]
81

# lookup: viability at 3 days, 10 µM of COc1ccc2c3ccnc(C)c3n(C(C)C#N)c2c1 (stereo not shown) [AnnH43]
90

As a next step, examine the molecule that follows.
# lookup: viability at 3 days, 10 µM of COc1ccc2c3ccnc(C)c3n(CC#N)c2c1 [AnnH31]
70

----------
Overview of recorded IC50 for various molecules
Target: UniProt P21397
Sequence (P21397 1-527): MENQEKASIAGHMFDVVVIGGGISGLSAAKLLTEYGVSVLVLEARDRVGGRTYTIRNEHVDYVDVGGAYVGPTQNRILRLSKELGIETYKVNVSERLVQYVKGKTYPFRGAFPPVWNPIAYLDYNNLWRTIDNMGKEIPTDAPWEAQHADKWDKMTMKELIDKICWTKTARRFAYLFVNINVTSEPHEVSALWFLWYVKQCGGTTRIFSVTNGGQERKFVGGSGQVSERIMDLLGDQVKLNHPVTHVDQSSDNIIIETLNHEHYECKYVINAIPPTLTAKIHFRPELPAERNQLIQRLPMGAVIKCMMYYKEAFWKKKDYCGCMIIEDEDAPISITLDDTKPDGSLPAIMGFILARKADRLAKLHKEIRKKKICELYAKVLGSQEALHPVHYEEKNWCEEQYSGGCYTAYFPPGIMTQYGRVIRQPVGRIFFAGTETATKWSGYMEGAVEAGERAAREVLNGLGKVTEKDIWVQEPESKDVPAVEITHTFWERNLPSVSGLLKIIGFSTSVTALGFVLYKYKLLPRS
Experiment: MAO-GLO assay
Type: biochemical
Settings: n = 3–5 concentration response curves; read-out: Inhibition of MAO-A IC50
Quick reminder: number only, in µM, skip the unit.

# lookup: IC50 of COc1ccc2c3ccnc(C)c3n(C(C)C#N)c2c1 (stereo not drawn) [AnnH43]
5.39

# lookup: IC50 of COc1ccc2c3ccnc(C)c3n(CC#N)c2c1 [AnnH31]
3.24
